These measurements were taken from paper PMC8699473.

# Method description: Long-term stability in spiked pooled human plasma
# Measurement parameters: validation standard LLOV
Value type: Long-term stability, 2 month, -20°C Accuracy [%] (%)

>>> reported("COc1cc2ncnc(Nc3ccc(F)c(Cl)c3)c2cc1NC(=O)/C=C/CN1CCCCC1")
96.8
>>> reported("C#Cc1cccc(Nc2ncnc3cc(OCCOC)c(OCCOC)cc23)c1")
113.2
>>> reported("COC(=O)c1ccc2c(c1)NC(=O)/C2=C(\\Nc1ccc(N(C)C(=O)CN2CCN(C)CC2)cc1)c1ccccc1")
96.9
>>> reported("CNC(=O)c1ccc(N2C(=S)N(c3ccc(C#N)c(C(F)(F)F)c3)C(=O)C2(C)C)cc1F [Enzalutamide]")
90.2
>>> reported("Cc1c(C(=O)Nc2ccc(N3C[C@@H](C)O[C@@H](C)C3)nc2)cccc1-c1ccc(OC(F)(F)F)cc1")
105.8
>>> reported("CC(=O)Nc1cccc(-n2c(=O)n(C3CC3)c(=O)c3c(Nc4ccc(I)cc4F)n(C)c(=O)c(C)c32)c1")
111.6
>>> reported("CCN(CC)CCNC(=O)c1c(C)[nH]c(/C=C2\\C(=O)Nc3ccc(F)cc32)c1C")
114.3
>>> reported("N#CC[C@H](C1CCCC1)n1cc(-c2ncnc3[nH]ccc23)cn1")
98.6

* * *

# Method description: Short-term stability in spiked pooled human plasma (bench-top, 4 °C, 56 °C)
# Measurement parameters: validation standard 2xLLOV
Value type: Short-time stability (24h, RT, without daylight) Accuracy [%] (%)

>>> reported("CC(C)(C)c1nc(-c2cccc(NS(=O)(=O)c3c(F)cccc3F)c2F)c(-c2ccnc(N)n2)s1")
107.6
>>> reported("O=C(c1ccc(F)c(F)c1Nc1ccc(I)cc1F)N1CC(O)([C@@H]2CCCCN2)C1")
98.8
>>> reported("CCN1CCN(Cc2ccc(Nc3ncc(F)c(-c4cc(F)c5nc(C)n(C(C)C)c5c4)n3)nc2)CC1")
87.4
>>> reported("COC(=O)c1ccc2c(c1)NC(=O)/C2=C(\\Nc1ccc(N(C)C(=O)CN2CCN(C)CC2)cc1)c1ccccc1")
105.4
>>> reported("O=C1CN2Cc3c(ccc(Cl)c3Cl)N=C2N1 [Anagrelide]")
84.4
>>> reported("CC(=O)Nc1cccc(-n2c(=O)n(C3CC3)c(=O)c3c(Nc4ccc(I)cc4F)n(C)c(=O)c(C)c32)c1")
94.3
>>> reported("CCC1=C[C@@H]2CN(C1)Cc1c([nH]c3ccccc13)[C@@](C(=O)OC)(c1cc3c(cc1OC)N(C)[C@H]1[C@@](O)(C(=O)OC)[C@H](OC(C)=O)[C@]4(CC)C=CCN5CC[C@]31[C@@H]54)C2")
79.3
>>> reported("CS(=O)(=O)c1ccc(C(=O)Nc2ccc(Cl)c(-c3ccccn3)c2)c(Cl)c1")
117.6
>>> reported("Cn1cnc2c(F)c(Nc3ccc(Br)cc3F)c(C(=O)NOCCO)cc21")
86.4
>>> reported("Nc1cccc2c1C(=O)N(C1CCC(=O)NC1=O)C2=O (stereo not drawn) [Pomalidomide]")
51.3
>>> reported("COC(=O)N[C@@H](C)CNc1nccc(-c2cn(C(C)C)nc2-c2cc(Cl)cc(NS(C)(=O)=O)c2F)n1")
112.9
>>> reported("C[C@H]1Oc2cc(cnc2N)-c2c(nn(C)c2C#N)CN(C)C(=O)c2ccc(F)cc21")
99.6
>>> reported("Cc1[nH]c2ccccc2c1CCNCc1ccc(/C=C/C(=O)NO)cc1")
45.4
>>> reported("CCOc1cc2ncc(C#N)c(Nc3ccc(OCc4ccccn4)c(Cl)c3)c2cc1NC(=O)/C=C/CN(C)C")
25.4
>>> reported("CNC(=O)c1ccc(N2C(=S)N(c3ccc(C#N)c(C(F)(F)F)c3)C(=O)C2(C)C)cc1F [Enzalutamide]")
108.3
